- targetOfAssay: FcεRI-IgG (Homo sapiens, UniProt P12319)
- Construct: consisting of the extracellular domain of FcεR Ifused to the Fc domain of IgG; host or cells: CHO cells
- Sequence (P12319 26-205 limits assumed): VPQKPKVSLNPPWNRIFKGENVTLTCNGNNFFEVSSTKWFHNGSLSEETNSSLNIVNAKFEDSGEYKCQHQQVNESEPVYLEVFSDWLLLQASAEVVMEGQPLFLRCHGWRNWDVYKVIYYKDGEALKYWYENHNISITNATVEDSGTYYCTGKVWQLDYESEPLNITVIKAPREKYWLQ
- assaySummary: g3 phage competitive binding ELISA (competition with soluble FcεRI-IgG)
- assaySetup: g3 phage clones; immobilized FcεRI-IgG, titrated soluble FcεRI-IgG; read-out: Phage IC50
reportedProperty: IC50 (nM)
# value in nM; strip the unit string

Any idea what its IC50 is? The sequence is DLPACTEGPWGWVCMAAD [g3b.7] 9

For VMPTCTEGPWGWVCMAAD [g3b.4] then? 7

For GRAQCTEGPWGWVCMAAD [g3b.6] then? 16

For AMAQCTEGPWGWVCMAAD [g3b.5] then? 10
